# tested on: Protein translocase subunit SecA (Escherichia coli (strain K12))
# method description: Assay to Identify E. coli SecA ATPase Inhibitors
# Type: functional
# Set-up: scale not given: direction of the effect not stated beside the values
# test parameters: 30 µM
Measured potencies and affinities stand elsewhere.

molecule | Percent Effect
Cc1nc2c(c(N3CC=CC3)n1)CCN(Cc1ccoc1)CC2 | -7.04%
O=C(NCc1nnc2n1CCCCC2)N1CCc2sccc2C1 | 0.647%
CCS(=O)(=O)N1CCOC2(CCCN(c3ccc(C)nn3)C2)C1 (stereo unspecified) | -0.413%
CC(=O)N(Cc1ncc(C)o1)C1CCN(CCNC2CCCCC2)C1 (stereo unspecified) | -1.61%
CCc1nnsc1C(=O)NC1CCN(c2ccccn2)CC1 | -1.79%
CC(=O)Nc1nc(CN2CCn3c(nnc3C3CC3)C2)cs1 | -1.36%

###

As shown below, each of these molecules has a reported Percent Effect value.
# tested on: Protein translocase subunit SecA (Escherichia coli (strain K12)) (UniProt P10408)
# Sequence (P10408 whole entry): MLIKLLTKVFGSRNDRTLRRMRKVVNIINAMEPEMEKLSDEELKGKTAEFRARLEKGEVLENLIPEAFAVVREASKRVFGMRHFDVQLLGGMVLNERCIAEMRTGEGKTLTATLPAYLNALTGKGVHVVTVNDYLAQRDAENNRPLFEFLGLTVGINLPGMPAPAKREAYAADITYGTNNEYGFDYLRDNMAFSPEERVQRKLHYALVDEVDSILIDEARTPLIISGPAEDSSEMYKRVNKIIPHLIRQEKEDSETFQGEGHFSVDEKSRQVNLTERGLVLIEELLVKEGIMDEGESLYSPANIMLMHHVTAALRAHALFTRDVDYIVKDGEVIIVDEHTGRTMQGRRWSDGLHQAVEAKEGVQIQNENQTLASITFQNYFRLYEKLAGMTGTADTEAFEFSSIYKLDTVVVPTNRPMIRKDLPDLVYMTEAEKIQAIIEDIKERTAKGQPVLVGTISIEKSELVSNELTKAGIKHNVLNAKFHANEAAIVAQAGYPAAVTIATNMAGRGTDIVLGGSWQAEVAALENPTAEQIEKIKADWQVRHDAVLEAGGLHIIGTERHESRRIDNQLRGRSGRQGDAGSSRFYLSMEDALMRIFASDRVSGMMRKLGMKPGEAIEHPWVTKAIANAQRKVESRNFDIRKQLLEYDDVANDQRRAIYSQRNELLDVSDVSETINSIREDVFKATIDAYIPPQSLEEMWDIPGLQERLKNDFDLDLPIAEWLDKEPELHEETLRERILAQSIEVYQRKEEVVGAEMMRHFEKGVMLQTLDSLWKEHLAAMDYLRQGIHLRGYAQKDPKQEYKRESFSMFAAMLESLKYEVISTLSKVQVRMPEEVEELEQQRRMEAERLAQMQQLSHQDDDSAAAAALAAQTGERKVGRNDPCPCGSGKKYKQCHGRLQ
# method description: Assay to Identify E. coli SecA ATPase Inhibitors
# Type: functional
# Set-up: scale not given: direction of the effect not stated beside the values
# test parameters: 30 µM
Measured potencies and affinities stand elsewhere.

item smiles | unit spec | Percent Effect
Cc1ccc(CN(Cc2c[nH]cn2)C2CC(C)(C)NC(C)(C)C2)o1 | % | -2.16
Cc1nn(C)c(N(C)C)c1CNCc1cccnc1-n1cncn1 | % | -3.71
Cc1nc(CN2CCc3ncnc(-c4ccc(F)cc4)c3CC2)cs1 | % | -3.21

###

Overview of reported Percent Effect across a group of molecules:
# tested on: Tyrosyl-tRNA synthetase, putative (Trypanosoma cruzi (strain CL Brener))
# method description: Trypanosoma cruzi tyrosyl tRNA synthetase (TcYRS) SOP
# Assay type: functional
# Parameters: scale not given: direction of the effect not stated beside the values
# test parameters: 30 µM
reported metric: Percent Effect (%)

molecule | tested on | assay value
CN(CC1(O)CCCN(c2ccccn2)C1)C(=O)Cc1ccsc1 (stereo not drawn) | Tyrosyl-tRNA synthetase, putative (Trypanosoma cruzi (strain CL Brener)) | 9.09
COCc1noc(C2(c3ccc(F)cc3)CCOCC2)n1 | Tyrosyl-tRNA synthetase, putative (Trypanosoma cruzi (strain CL Brener)) | -2.44
Fc1cccc(Oc2ccc(CNCC3CNc4ccnn4C3)cn2)c1 (stereo not drawn) | Tyrosyl-tRNA synthetase, putative (Trypanosoma cruzi (strain CL Brener)) | 43.9

###

# tested on: Tyrosyl-tRNA synthetase, putative (Trypanosoma cruzi (strain CL Brener)) (UniProt Q4DSP6)
# Sequence (Q4DSP6 as listed by the source): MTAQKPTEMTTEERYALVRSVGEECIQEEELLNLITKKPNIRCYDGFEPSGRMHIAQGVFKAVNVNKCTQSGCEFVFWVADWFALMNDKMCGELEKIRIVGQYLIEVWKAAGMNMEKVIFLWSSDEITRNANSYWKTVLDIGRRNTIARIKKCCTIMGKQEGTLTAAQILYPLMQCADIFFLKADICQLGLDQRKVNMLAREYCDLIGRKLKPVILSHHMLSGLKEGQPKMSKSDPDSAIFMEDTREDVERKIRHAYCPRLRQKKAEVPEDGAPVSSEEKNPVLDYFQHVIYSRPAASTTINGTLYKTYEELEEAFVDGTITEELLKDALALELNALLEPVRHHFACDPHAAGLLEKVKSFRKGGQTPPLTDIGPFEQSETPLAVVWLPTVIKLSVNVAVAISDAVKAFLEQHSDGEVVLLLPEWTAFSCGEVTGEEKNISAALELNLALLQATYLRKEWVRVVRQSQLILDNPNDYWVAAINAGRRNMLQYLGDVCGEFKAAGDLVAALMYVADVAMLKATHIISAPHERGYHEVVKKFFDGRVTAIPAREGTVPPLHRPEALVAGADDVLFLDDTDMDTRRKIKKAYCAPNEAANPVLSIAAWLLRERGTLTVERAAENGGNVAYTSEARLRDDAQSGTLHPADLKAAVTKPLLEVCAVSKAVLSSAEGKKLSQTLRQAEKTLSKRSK
# method description: Trypanosoma cruzi tyrosyl tRNA synthetase (TcYRS) _High Tyrosine SOP; further: in the data most compounds retested in dose-response had high values
# Format: functional
# Parameters: scale not given: direction of the effect not stated beside the values
# test parameters: 30 µM
Listed below: Percent Effect values for each entry.

molecule | Percent Effect / %
O=C(NCc1ccc(-c2ccn[nH]2)cc1)N1CCC(N2CCCC2)C1 (stereo not drawn) | 10.3
O=C(CS(=O)(=O)CC1CCCCC1)NC1CCCCNC1=O (stereo not drawn) | 0
O=C1CC(c2ccccc2F)c2c(n3ccsc3nc2=O)N1 (stereo not drawn) | 4.23

###

# tested on: Ubiquitin-activating enzyme e1, putative (Leishmania donovani (strain BPK282A1))
# method description: Leishmania donovani Ubiquitin Activating Enzyme (LdE1)
# Type: functional
# Parameters: scale not given: direction of the effect not stated beside the values
# test parameters: 30 µM
Results with a measured potency or affinity are listed apart.

compound | tested on | Percent Effect, %
Cc1ccc(NC(C)C(=O)NCc2cccs2)cc1C (stereo not given) | Ubiquitin-activating enzyme e1, putative (Leishmania donovani (strain BPK282A1)) | 16.4
CC(O)CN1CCN(C(=O)c2cnn(-c3ccccc3F)c2)CC1 (stereo not given) | Ubiquitin-activating enzyme e1, putative (Leishmania donovani (strain BPK282A1)) | 13.3
O=C(NCC1CCN(C(=O)c2ccoc2)CC1)c1ccccc1Br | Ubiquitin-activating enzyme e1, putative (Leishmania donovani (strain BPK282A1)) | 5.48
CN(C)C(=O)c1cccc(NC(=O)N(CCO)Cc2ccsc2)c1 | Ubiquitin-activating enzyme e1, putative (Leishmania donovani (strain BPK282A1)) | 9.72
Cc1nc(C)n(CC2CCCN2CC(=O)NCc2ccco2)n1 (stereo not given) | Ubiquitin-activating enzyme e1, putative (Leishmania donovani (strain BPK282A1)) | 2.74
Cc1noc(C2CCN(C(=O)c3c(C)noc3C)CC2)n1 | Ubiquitin-activating enzyme e1, putative (Leishmania donovani (strain BPK282A1)) | 10.8
Cc1cc(C)n(CC2CCCN2C(=O)Cc2c(C)noc2C)n1 (stereo not given) | Ubiquitin-activating enzyme e1, putative (Leishmania donovani (strain BPK282A1)) | 8.11
O=C(CS(=O)(=O)CC1CCCCC1)NC1CCCCNC1=O (stereo not given) | Ubiquitin-activating enzyme e1, putative (Leishmania donovani (strain BPK282A1)) | 2.6
Cc1nccn1CC1CCCN1S(=O)(=O)Cc1ccccc1 (stereo not given) | Ubiquitin-activating enzyme e1, putative (Leishmania donovani (strain BPK282A1)) | 5.06
CC(C)N(C)Cc1cn2c(n1)CN(C(=O)Cc1ccsc1)CC2 | Ubiquitin-activating enzyme e1, putative (Leishmania donovani (strain BPK282A1)) | 2.74

###

Measured Percent Effect by item
# Tested on: Trypanosoma cruzi
# method description: Trypanosoma cruzi phosphomannomutase and mannose-1-phosphate guanylyltransferase assay
# Assay type: functional
# Parameters: scale not given: direction of the effect not stated beside the values
# test parameters: 10 µM
reported metric: Percent Effect

compound | reported metric | assay value
Cc1ccc(C(CNCc2cnn(C(C)C)c2)N2CCOCC2)s1 (configuration not stated) | Percent Effect | -0.391%
CCC1(CC)Cc2ccccc2-c2nc(NCCO)[nH]c(=O)c21 | Percent Effect | -2.63%
O=C(Cc1ccsc1)N1CCn2cc(CN3CCCC3)nc2C1 | Percent Effect | 8.33%
CCn1nnc2c1C(COC)CN(C(=O)Cc1cccs1)C2 (configuration not stated) | Percent Effect | -2.93%
CC1CCN(Cc2cnc(S(=O)(=O)CC3CC3)n2CC2CCCO2)CC1 (configuration not stated) | Percent Effect | -3.21%
O=C(CCc1ccccn1)N1CCc2cc(Cl)cc(Cl)c2C1 | Percent Effect | -9.34%
COCCN1C[C@@H]2CCCO[C@@H]2[C@H](NC(=O)c2cnccn2)C1 | Percent Effect | -2.32%
COc1ccc(OCc2cc(C(=O)N3CCN[C@H](C)C3)n[nH]2)c(Cl)c1 | Percent Effect | -4.63%
CSc1cccc(CN(C)C(=O)C2CC(=O)N(CCN(C)C)C2)c1 (configuration not stated) | Percent Effect | 4.38%
CCC(C)c1noc(C2CCN(C(=O)c3cccnc3)CC2)n1 (configuration not stated) | Percent Effect | -0.0983%
Cc1nc(CN2CCCC(N(C)Cc3c(C)noc3C)C2)no1 (configuration not stated) | Percent Effect | 9.7%
COc1ccc(CCC(=O)NC2CCC(O)CC2)cc1OC (configuration not stated) | Percent Effect | -0.654%
Cc1ccc(O)c(CNC2CCc3nc(C(C)C)nn3C2)n1 (configuration not stated) | Percent Effect | 3.02%
FC(F)(F)COCCN1CCCC(c2noc(C3CC3)n2)C1 (configuration not stated) | Percent Effect | 7.3%
Cc1ccn(-c2ccccc2NCc2cccnc2C)n1 | Percent Effect | -0.196%
CC(Cc1ccco1)NC(=O)Nc1cnn(CC(N)=O)c1 (configuration not stated) | Percent Effect | -6.67%
CN(C)CCNC(=O)c1cnc2c(c1)nc(-c1ccccc1Cl)n2C | Percent Effect | 3.81%
CCOc1ncccc1C(=O)N1CCCCC1c1nccs1 (configuration not stated) | Percent Effect | 2.55%
Cc1ccc(C(=O)N(C)Cc2cscn2)c(=O)[nH]1 | Percent Effect | 2.24%
CCCc1n[nH]c(C2CN(C(=O)c3ccco3)CCO2)n1 (configuration not stated) | Percent Effect | -1.03%
c1cnnc(N2CCCC2CNc2ncnc3c2CCC3)c1 (configuration not stated) | Percent Effect | -1.95%
N#CCSCCCN1CCN(C(=O)c2ccc(Cl)cc2)CC1 | Percent Effect | -3.37%
CC(C)Oc1ccccc1CNC(=O)N1CCC(n2cncn2)CC1 | Percent Effect | 3.79%
Cc1nccn1-c1cc(CNC(=O)C(C)(C)C)ccn1 | Percent Effect | 0.588%
O=C(c1cccs1)N1CCC(n2nc(-c3ccco3)ccc2=O)CC1 | Percent Effect | -1.19%
Cc1nc(C2CCCN2C(=O)c2ccccc2)ncc1C(N)=O (configuration not stated) | Percent Effect | 1.97%
O=C(NCCCOCC1CCCO1)c1cccnc1N1CCCC1 (configuration not stated) | Percent Effect | -2.93%

###

# Species: Homo sapiens
# method description: To identify inhibition of the IFN signalling (Jak-Stat) pathway via expression of an eGFP reporter gene under the control of an IFN-stimulated response element (ISRE) containing MxA promoter.
# Assay type: functional
# Set-up: scale not given: direction of the effect not stated beside the values
# test parameters: 30 µM
reported metric: Percent Effect (%)

molecule | assay value
CCc1nnc2n1CCN(C(=O)CN(C)Cc1ccccc1)C2 | -5.24
CC(C)Nc1ncnc2c1CCN(C(=O)Cc1ccccn1)CC2 | -12.6
COc1ccc(C)cc1S(=O)(=O)NCC(c1cccn1C)N(C)C (stereo not drawn) | 6.68
CC(=O)N(Cc1ncc(C)o1)C1CCN(Cc2ccncc2Cl)C1 (stereo not drawn) | -2.79
O=C(CN1CCC(c2ccnn2CCO)CC1)NCc1cccs1 | -10.7
CC(=O)N1CCCN(C(=O)NCCc2cc(Cl)cc(Cl)c2)CC1 | 13.1
Cc1nc(CN2CCOC(c3nc(C(C)C)n[nH]3)C2)oc1C (stereo not drawn) | -4.74
COc1ccc(C[C@H]2CN(c3nnc(C)s3)CC[C@@H]2OC)cc1 | 3.46
N#Cc1ccccc1OCCN1CCCCC1Cn1cncn1 (stereo not drawn) | -11.9
CN(C)c1nccc(N2CCO[C@H]3CN(CC4CCOCC4)C[C@H]32)n1 | 30.6
CNC(=O)Nc1cc(-c2ccccc2C)nn1CCO | -9.47
CSCC[C@H](N)C(=O)NCc1cc2n(n1)CCCN(C1CCCCC1)C2 | 2.41
Cc1nc(C)n(CC2CCCN2Cc2cc(C)on2)n1 (stereo not drawn) | 19.8
COc1c(C)cnc(CN2CCC(N(C)C(C)C(N)=O)CC2)c1C (stereo not drawn) | 42.8
O=C(NCC1CC1)c1nc(COc2ccc3c(c2)OCO3)no1 | 7.56
COCCNc1nc(C2CCCC2)nc2c1CCNCC2 | -3.26
Cc1ccccc1CS(=O)(=O)CC(=O)NCc1ccccc1F | 31
CC(=O)NCCNC(=O)N(C)Cc1ccc2c(c1)OCCO2 | 7.44
Cc1ccc(CC(=O)N(C)CC2(O)CCN(c3ccccn3)C2)s1 (stereo not drawn) | 1.85
Cc1nc2ccccc2c(=O)n1CCC(=O)N1CCSCC1 | 4.99
COCCN1CCC2(CC1)CC(COC)N(c1ncccn1)C2 (stereo not drawn) | -6.06
COc1cccc(OCCNCc2c(C)nn(C)c2N(C)C)c1 | -12
O=C(c1ccc(Cl)c(Cl)c1)N1CCCC(n2cncn2)C1 (stereo not drawn) | 6.82
COc1ccc(C(C)=O)c(OCC(=O)NC(C)c2ccc(F)cc2)c1 (stereo not drawn) | -11.8
CNS(=O)(=O)c1ccc(C(=O)NC2CCc3nc(C)cn3C2)o1 (stereo not drawn) | -11.5
CC(C)N(CC(N)=O)Cc1csc(COc2ccc(F)cc2)n1 | 63.8
Cc1cnn(CCC(=O)N2C[C@H]3CC[C@@H]2CN(CC(=O)N(C)C)C3)c1 | 5.29
O=C(Cc1ccccn1)N1CCN(CC2CC2)c2ncccc2C1 | 9.79
CCOCCOC(C)C(=O)NCc1cn2cc(Br)ccc2n1 (stereo not drawn) | -18
COc1ncccc1C(=O)N1CC[C@H]2C[C@@H](C)O[C@@H]2C1 | -1.15
CC(C)Nc1nc2c(cc1C(=O)N(C)C)CCNCC2 | -7.58
Cc1nc(C(=O)N2CCC(Nc3cccnn3)CC2)cs1 | -1.06
CCOCC(O)CN1CCN(C(=O)CC(C)C)CC1 (stereo not drawn) | 12.1
O=C(CN1C=Nc2ccccc2S1(=O)=O)NCCc1cccs1 | 5.08
CCOc1ccc(Cl)cc1CNCCCn1ccnc1 | 11
Cc1cnn(C2CCCN(C(=O)C3=NN(C)C(=O)CC3)C2)c1 (stereo not drawn) | 2.98
Cc1cc2cc(C(=O)N[C@@H]3CC[C@@H](N4CCOCC4)[C@@H]3O)ccc2o1 | 29.4
CCn1cc(NC(=O)NCC2(N3CCOCC3)CCSC2)cn1 (stereo not drawn) | -1.24
CN(C)CC1CSCCCN1C(=O)c1ccc(=O)[nH]c1 (stereo not drawn) | 0.342
CCc1ncc(CNC2CC(=O)N(CCc3cccc(Cl)c3)C2)cn1 (stereo not drawn) | 0.221
CCOc1cccc2c1OCC(C(=O)NS(=O)(=O)c1ccc(Cl)cc1)=C2 | 18.9
CCc1nc(C2CCCN2CC(=O)Nc2c(C)nn(C)c2C)no1 (stereo not drawn) | 10.6
CCN(CC(=O)NC(C)C)S(=O)(=O)N1CCC(C)C1 (stereo not drawn) | -14.3
